Target: human Kv7.2 (Homo sapiens (Human), UniProt O43526)
Test: SyncroPatch 384 electrophysiology, activation of Kv7.2 in CHO cells
Conditions: CHO cells stably expressing human Kv7.2; potassium current at -90 mV repolarizing step, in presence of zinc pyrithione
Description: The potency of Kv7 potentiators was determined using the SyncroPatch 384 (Nanion) high throughput electrophysiology platform. […] At the beginning of each assay, 20 μl of cell suspension was dispensed into each well of a multi-hole 384-well SyncroPatch chip by the onboard pipettor. […] Human Kv7.2, Kv7.4 or Kv7.5/7.3 channels were evaluated using a voltage protocol in which cells were voltage-clamped at a holding potential of −60 mV. […] Potassium currents were measured from the −90 mV repolarizing step. […]
pEC50: −log10 of the molar value.
Measurement name: pEC50

O=C(NCc1ccnc(OC2COC2)c1)N[C@@H]1C[C@H]1c1ccccc1 | 6.02

(A) O=C(NCc1ccnc(-n2cnc(C(F)(F)F)c2)c1)N[C@@H]1C[C@H]1C1CCCCC1 (racemic)
(B) O=C(NCc1ccnc(C2COC2)c1)N[C@@H]1C[C@H]1c1ccccc1
(C) O=C(NCc1ccnc(Cl)c1)N[C@@H]1C[C@H]1c1ccccc1
(D) O=C(NCc1ccnc(OC(F)F)c1)N[C@@H]1C[C@H]1c1ccccc1
Give the ascending ranking of the items by reported pEC50. Reply format: the labels, ordered as requested.
C, B, A, D
(C: 5.17, B: 5.52, A: 6.80, D: 7.00)

====

Target: human Kv7.2 (Homo sapiens (Human))
Experiment: SyncroPatch 384 electrophysiology, activation of Kv7.2 in CHO cells
Conditions: CHO cells stably expressing human Kv7.2; potassium current at -90 mV repolarizing step, in presence of zinc pyrithione
pEC50: −log10 of the molar value.
Measurement name: pEC50

(a) O=C(NCc1ccnc(OC(F)F)c1)N[C@@H]1C[C@H]1C1CCCO1 (mixture of isomers)
(b) N#Cc1cc(CNC(=O)N[C@@H]2C[C@H]2c2ccccc2)ccn1 (racemic) [Example 8]
Consider entries a and b . Which has the numerically lower pEC50? # respond with the chosen item's label
a
(a: 5.10, b: 5.38)

====

Biological target: UniProt:O43526
Assay: SyncroPatch 384 electrophysiology, activation of Kv7.2 in CHO cells
Type: cell-based
Details: CHO; Kv7.2 activation max %, relative to 30 μM ML-213 max activation
Measurement name: Emax (%)

For orientation, consider the following solved cases.
O=C(NCc1ccnc(OCC(F)CF)c1)N[C@@H]1C[C@H]1c1ccccc1 (stereo partly shown) | 70
C[C@@]1(NC(=O)NCc2ccnc(OC(F)F)c2)C[C@H]1c1ccccc1 (racemic) | 69

(a) O=C(NCc1ccnc(-n2ccnc2)c1)N[C@@H]1C[C@H]1c1ccccc1
(b) O=C(NCc1ccnc(C(F)F)c1)N[C@@H]1C[C@H]1c1ccccc1
Compare the recorded Emax of a and b ; state which is larger. # respond with the chosen item's label
b
(b: 72%, a: 45%)

====

Molecular target: human Kv7.2 (Homo sapiens (Human))
Test: SyncroPatch 384 electrophysiology, activation of Kv7.2 in CHO cells
Type: cell-based
Details: CHO; Kv7.2 activation max %, relative to 30 μM ML-213 max activation
Procedure: The potency of Kv7 potentiators was determined using the SyncroPatch 384 (Nanion) high throughput electrophysiology platform. […] At the beginning of each assay, 20 μl of cell suspension was dispensed into each well of a multi-hole 384-well SyncroPatch chip by the onboard pipettor. […] Human Kv7.2, Kv7.4 or Kv7.5/7.3 channels were evaluated using a voltage protocol in which cells were voltage-clamped at a holding potential of −60 mV. […] Potassium currents were measured from the −90 mV repolarizing step. […]
Measurement name: Emax (%)

For orientation, consider the following solved cases.
C[C@]1(C(F)(F)F)C[C@@H]1NC(=O)NCc1ccnc(OC(F)F)c1 (racemic) | 77
O=C(NCc1ccnc(OC(F)F)c1)N[C@@H]1C[C@H]1C(F)(F)F | 54
CC(F)(F)[C@@H]1C[C@H]1NC(=O)NCc1ccnc(OC(F)F)c1 (racemic) | 40
O=C(NCc1cc(OCC(F)(F)F)ncn1)N[C@@H]1C[C@H]1C(F)(F)F (racemic) | 52
CC(C)c1nccc(CNC(=O)N[C@@H]2C[C@H]2C2CCCCC2)n1 (racemic) | 71
O=C(NCc1ccnc(-n2cnc(C(F)(F)F)c2)c1)N[C@@H]1C[C@H]1C1CCCCC1 (racemic) | 45

(P) O=C(NCc1ccnc(C2COC2)c1)N[C@@H]1C[C@H]1c1ccccc1
(Q) O=C(NCc1ccnc(OC(F)F)c1)N[C@@H]1C[C@H]1c1ccccc1
Compare the recorded Emax of P and Q ; state which is larger. # respond with the chosen item's label
Q

(A) CC(C)Oc1cc(CNC(=O)N[C@@H]2C[C@H]2c2ccccc2)ccn1
(B) O=C(NCc1ccnc(OC(F)F)n1)N[C@@H]1C[C@H]1C(F)(F)F
Compare the recorded Emax of A and B ; state which is larger. # respond with the chosen item's label
A
(A: 64%, B: 42%)

====

Target: human Kv7.2 (Homo sapiens (Human))
Experiment: SyncroPatch 384 electrophysiology, activation of Kv7.2 in CHO cells
Assay type: cell-based
Settings: CHO; Kv7.2 activation max %, relative to 30 μM ML-213 max activation
Procedure: The potency of Kv7 potentiators was determined using the SyncroPatch 384 (Nanion) high throughput electrophysiology platform. […] At the beginning of each assay, 20 μl of cell suspension was dispensed into each well of a multi-hole 384-well SyncroPatch chip by the onboard pipettor. […] Human Kv7.2, Kv7.4 or Kv7.5/7.3 channels were evaluated using a voltage protocol in which cells were voltage-clamped at a holding potential of −60 mV. […] Potassium currents were measured from the −90 mV repolarizing step. […]
Measurement name: Emax (%)

CC(F)(F)c1cc(CNC(=O)N[C@@H]2C[C@H]2c2ccccc2)ccn1 | 97
O=C(NCc1ccnc(-n2cccn2)c1)N[C@@H]1C[C@H]1c1ccccc1 (racemic) [Example 12] | 69
O=C(NCc1ccnc(Cl)c1)N[C@@H]1C[C@H]1C1CCCCC1 (racemic) | 61
C[C@@H]1C[C@H]1NC(=O)NCc1ccnc(OC(F)F)c1 (racemic) | 51
N#Cc1ccnc(CNC(=O)N[C@@H]2C[C@H]2c2ccccc2)c1 | 73

(a) O=C(NCc1ccnc(OC2CCOCC2)c1)NC1CC1C1CCCCC1 (centres unmarked)
(b) C[C@H](NC(=O)N[C@@H]1C[C@H]1c1ccccc1)c1ccnc(-n2cnc(C(F)(F)F)c2)c1
Compare the recorded Emax of a and b ; state which is larger. # respond with the chosen item's label
a
(a: 77%, b: 40%)

(1) COc1cc(CNC(=O)N[C@@H]2C[C@H]2c2ccccc2)ccn1 (racemic) [Example 5]
(2) COC[C@@H](Oc1cc(CNC(=O)N[C@@H]2C[C@H]2C(F)(F)F)ccn1)C(F)(F)F (mixture of isomers)
Consider entries 1 and 2 . Which has the numerically lower Emax? # respond with the chosen item's label
1
(1: 44%, 2: 69%)

(P) O=C(NCc1ccnc(OC(F)F)c1)N[C@@H]1C[C@H]1C1CCCO1 (mixture of isomers)
(Q) C[C@@H](NC(=O)N[C@@H]1C[C@H]1c1ccccc1)c1ccnc(OC(F)F)c1 (stereo in doubt)
Consider entries P and Q . Which has the numerically lower Emax? # respond with the chosen item's label
Q
(Q: 42%, P: 61%)

(I) O=C(NCc1ccnc(OCC(F)(F)F)c1)N[C@@H]1C[C@H]1c1ccccc1
(II) COc1cc([C@H](C)NC(=O)N[C@@H]2C[C@H]2c2ccccc2)ccn1
Compare the recorded Emax of I and II ; state which is larger. # respond with the chosen item's label
I
(I: 71%, II: 47%)

====

Biological target: human Kv7.2 (Homo sapiens (Human), UniProt O43526)
Assay: SyncroPatch 384 electrophysiology, activation of Kv7.2 in CHO cells
Format: cell-based
Conditions: CHO; Kv7.2 activation max %, relative to 30 μM ML-213 max activation
Measurement name: Emax (%)

O=C(NCc1ccnc(OC2CCOCC2)c1)N[C@@H]1C[C@H]1c1ccccc1 [Example 20] | 58
O=C(NCc1ccnc(OC2COC2)c1)N[C@@H]1C[C@H]1c1ccccc1 [Example 16] | 57
O=C(NCc1cccc(Cl)n1)N[C@@H]1C[C@H]1C1CCCCC1 (racemic) [Example 3] | 77
O=C(NCc1ccnc(C(F)(F)F)c1)N[C@@H]1C[C@H]1c1ccccc1 [Example 22] | 53
O=C(NCc1ccnc(OC(F)(F)F)c1)N[C@@H]1C[C@H]1c1ccccc1 [Example 28] | 62
O=C(NCc1ccnc(Oc2ccccc2)c1)N[C@@H]1C[C@H]1c1ccccc1 [Example 34] | 62
O=C(NCc1ccnc(OCF)c1)N[C@@H]1C[C@H]1c1ccccc1 [Example 37] | 74

====

Target: UniProt:O43526
Experiment: SyncroPatch 384 electrophysiology, activation of Kv7.2 in CHO cells
Assay type: cell-based
Details: CHO; Kv7.2 activation max %, relative to 30 μM ML-213 max activation
Measurement name: Emax (%)

For orientation, consider the following solved cases.
O=C(NCc1ccnc(-n2cnc(C(F)(F)F)c2)c1)N[C@@H]1C[C@H]1c1ccccc1 | 44
N#Cc1cc(CNC(=O)N[C@@H]2C[C@H]2c2ccccc2)ccn1 [Example 10] | 43

(A) O=C(NCc1ccnc(OC2CCC2)c1)N[C@@H]1C[C@H]1c1ccccc1
(B) N#Cc1cc(CNC(=O)N[C@@H]2C[C@H]2c2ccccc2)ccn1 (racemic) [Example 8]
Consider entries A and B . Which has the numerically lower Emax? # respond with the chosen item's label
B
(B: 40%, A: 60%)

The reported measurements were obtained from patent US20240336571A1.
